# IC50 listing for each entry below
molecular target: Tyk2 kinase activity on STAT4 in NK92 cells (Homo sapiens, UniProt P29597); assay: pSTAT4 cell assay (MSD; NK92 cells, 30 ng/mL IL2 stimulation); settings: 30 ng/mL IL2, 15 minutes
Sequence (P29597 whole entry): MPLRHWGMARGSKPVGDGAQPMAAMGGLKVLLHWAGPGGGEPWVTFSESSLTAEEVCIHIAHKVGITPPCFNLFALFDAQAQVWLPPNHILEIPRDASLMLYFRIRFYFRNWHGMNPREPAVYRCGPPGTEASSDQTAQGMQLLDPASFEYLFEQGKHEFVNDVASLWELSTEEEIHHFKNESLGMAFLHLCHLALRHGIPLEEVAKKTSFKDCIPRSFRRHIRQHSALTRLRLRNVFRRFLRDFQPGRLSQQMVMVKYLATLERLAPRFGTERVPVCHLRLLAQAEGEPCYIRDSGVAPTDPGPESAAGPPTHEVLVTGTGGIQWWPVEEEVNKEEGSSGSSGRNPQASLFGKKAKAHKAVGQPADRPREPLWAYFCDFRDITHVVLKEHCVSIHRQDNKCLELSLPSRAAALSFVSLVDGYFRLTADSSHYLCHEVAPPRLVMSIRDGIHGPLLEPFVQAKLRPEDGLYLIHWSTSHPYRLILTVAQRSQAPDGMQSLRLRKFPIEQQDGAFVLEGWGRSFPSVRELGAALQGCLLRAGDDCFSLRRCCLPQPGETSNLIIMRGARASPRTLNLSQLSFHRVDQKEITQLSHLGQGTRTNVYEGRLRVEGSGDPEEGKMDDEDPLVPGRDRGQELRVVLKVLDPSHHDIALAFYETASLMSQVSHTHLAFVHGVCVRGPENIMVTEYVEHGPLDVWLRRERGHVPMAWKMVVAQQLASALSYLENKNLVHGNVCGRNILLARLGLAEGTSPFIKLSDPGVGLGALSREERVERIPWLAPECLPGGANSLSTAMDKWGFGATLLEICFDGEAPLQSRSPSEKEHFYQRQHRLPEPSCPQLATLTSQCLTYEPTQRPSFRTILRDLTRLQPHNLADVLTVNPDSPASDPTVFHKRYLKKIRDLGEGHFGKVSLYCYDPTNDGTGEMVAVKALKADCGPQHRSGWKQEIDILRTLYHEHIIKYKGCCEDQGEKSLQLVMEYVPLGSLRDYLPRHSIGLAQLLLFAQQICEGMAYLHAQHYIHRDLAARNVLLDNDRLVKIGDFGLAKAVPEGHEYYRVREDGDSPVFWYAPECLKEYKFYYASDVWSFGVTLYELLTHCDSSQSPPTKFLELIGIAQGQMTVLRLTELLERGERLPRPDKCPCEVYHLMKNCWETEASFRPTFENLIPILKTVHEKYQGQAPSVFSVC

C[C@@H]1CN(c2ccnn3cc(-c4cnn(-c5ccncc5)c4)cc23)C(=O)[C@]1(C#N)C1CC1	50 to 100 nM

Task: Query for Tyk2 kinase activity on STAT4 in NK92 cells (Homo sapiens, UniProt P29597): what IC50 does the record show for C[C@@H]1CN(c2nc(-c3cnn(C4COC4)c3)cn3ncc(F)c23)C(=O)[C@]1(C#N)C1CC1 ?
Result: 50 to 100 nM

Task: And what about the compound C[C@@H]1CN(c2ccnn3cc(-c4cnn([C@H]5C[C@H](C#N)C5)c4)cc23)C(=O)[C@]1(C#N)C1CC1 ?
Result: 20 to 50 nM

====

biological target: human JAK3 kinase domain (JH1) (Homo sapiens, UniProt P52333); construct: recombinantly generated catalytic kinase (also known as JH1) domain of human JAK1, JAK2, JAK3 and TYK2; assay: JH1 biochemical assay for JAK3 (ADP-Glo kinase assay, recombinant JH1 catalytic domain, JAK3-974 peptide, 4 μM ATP); settings: JH1 kinase domain, ADP-Glo
Sequence (P52333 822-1111 limits assumed): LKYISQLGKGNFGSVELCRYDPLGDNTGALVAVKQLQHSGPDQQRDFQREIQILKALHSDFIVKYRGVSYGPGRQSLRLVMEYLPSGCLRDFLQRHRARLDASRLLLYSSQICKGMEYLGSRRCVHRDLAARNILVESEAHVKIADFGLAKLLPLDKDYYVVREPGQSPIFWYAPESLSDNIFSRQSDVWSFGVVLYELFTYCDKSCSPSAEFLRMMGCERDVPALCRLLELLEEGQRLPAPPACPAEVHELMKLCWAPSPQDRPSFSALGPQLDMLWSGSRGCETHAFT
Where a name gives a salt, the structure may show the parent alone.
# IC50 listing for each entry below

# annotated cases, reported IC50 shown
C[C@@H]1CN(c2nc(-c3cnn4c3COCC4)cn3ncc(F)c23)C(=O)[C@]1(C#N)C1CC1 [Example 192]	< 0.1 µM
CC[C@H]1C[C@@](C#N)(C2CC2)C(=O)N1c1ccnn2cc(C3=NC(C)N=C3)cc12 (stereo partly shown) [Example 19]	> 10 µM
COC[C@]1(C#N)CCN(c2ccnn3cc(-c4cnn(C)c4)cc23)C1=O (single isomer, unassigned) [Example 41]	5 to 10 µM

Task: # IC50 lookup, item CC[C@H]1C[C@](C#N)(C2CC2)C(=O)N1c1ccnn2cc(-c3cnn(C)c3)cc12 [Example 32]
Result: > 10 µM

Task: And what about the compound C[C@@H]1CN(c2ccnn3cc(-c4nccc(O)c4C#N)cc23)C(=O)[C@]1(C#N)C1CC1 [Example 129, trifluoroacetate] ?
Result: > 10 µM

Task: And what about the compound C[C@@H]1CN(c2ccnn3cc(-c4nc(C#N)cs4)cc23)C(=O)[C@]1(C#N)C1CC1 [Example 114, trifluoroacetate] ?
Result: 1 to 5 µM

Task: And what about the compound C[C@@H]1CN(c2ccnn3cc(-c4cccc(C(F)F)n4)cc23)C(=O)[C@]1(C#N)C1CC1 [Example 135, trifluoroacetate] ?
Result: 0.1 to 1 µM

====

Biological target: human JAK2 kinase domain (JH1) (Homo sapiens, UniProt O60674)
Construct: recombinantly generated catalytic kinase (also known as JH1) domain of human JAK1, JAK2, JAK3 and TYK2
Sequence (O60674 849-1124 limits assumed): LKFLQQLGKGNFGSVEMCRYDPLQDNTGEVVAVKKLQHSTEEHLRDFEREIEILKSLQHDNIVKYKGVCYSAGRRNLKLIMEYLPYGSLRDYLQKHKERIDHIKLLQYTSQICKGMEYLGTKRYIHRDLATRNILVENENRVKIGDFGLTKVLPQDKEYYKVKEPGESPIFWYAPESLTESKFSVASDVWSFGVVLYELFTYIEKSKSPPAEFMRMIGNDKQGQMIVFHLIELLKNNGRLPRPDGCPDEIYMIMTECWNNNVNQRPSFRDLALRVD
Assay: JH1 biochemical assay for JAK2 (ADP-Glo kinase assay, recombinant JH1 catalytic domain, JAK3-974 peptide, 15 μM ATP)
Settings: JH1 kinase domain, ADP-Glo
Description: Compounds of the disclosure were assessed for their ability to inhibit TYK2, JAK1, JAK2, and JAK3 activity. The inhibitory properties of the compounds of the disclosure described herein can be evidenced by testing in any one of the following protocols. The kinase activity of recombinantly generated catalytic kinase (also known as JH1) domain of human JAK1, JAK2, JAK3 and TYK2 were evaluated in a plate-based assay using the ADP-Glo™ Kinase Assay platform. […]
Structures can show the parent of a compound that is named as a salt.
result type: IC50

# annotated cases, reported IC50 shown
C[C@@H]1CN(c2ccnn3cc(-c4nccc(C(F)(F)F)n4)cc23)C(=O)[C@]1(C#N)C1CC1 [Example 120, trifluoroacetate]	> 10000 nM
Cc1cc(-c2cc3c(N4C[C@@H](C)[C@@](C#N)(C5CC5)C4=O)ccnn3c2)ncc1C#N [Example 144, trifluoroacetate]	1000 to 5000 nM
C[C@@H]1CN(c2ccnn3cc(-c4ccc5cncn5c4)cc23)C(=O)[C@]1(C#N)C1CC1	100 to 1000 nM
Cc1nc(-c2cn3nccc3c(N3C[C@@H](C)[C@@](C#N)(C4CC4)C3=O)n2)cs1	100 to 1000 nM

Task: # IC50 lookup, item C[C@@H]1CN(c2ccnn3cc(-c4cc5ccccn5n4)cc23)C(=O)[C@]1(C#N)C1CC1 [Example 104, trifluoroacetate]
Result: 100 to 1000 nM

Task: And what about the compound C[C@@H]1CN(c2ccnn3cc(-c4cnn(C)c4)cc23)C(=O)[C@@]1(C#N)C1CC1 ?
Result: > 10000 nM

Task: And what about the compound C[C@H]1C[C@](C#N)(C2CC2)C(=O)N1c1ccnn2cc(-c3cnn(C)c3)cc12 ?
Result: > 10000 nM

Task: And what about the compound Cc1nc(-c2cc3c(N4C[C@@H](C)[C@@](C#N)(C5CC5)C4=O)ccnn3c2)ccc1F [Example 147, trifluoroacetate] ?
Result: 100 to 1000 nM

====

# IC50 listing for each entry below
biological target: Tyk2 kinase activity on STAT4 in NK92 cells (Homo sapiens); test: pSTAT4 cell assay (MSD; NK92 cells, 30 ng/mL IL2 stimulation); conditions: 30 ng/mL IL2, 15 minutes
Structures can show the parent of a compound that is named as a salt.

# annotated cases, reported IC50 shown
COc1ccc(-c2cc3c(N4C[C@@H](C)[C@@](C#N)(C5CC5)C4=O)ccnn3c2)nc1 [Example 145, trifluoroacetate]	> 100 nM
C[C@@H]1CN(c2nc(-c3cnc(N(C)C)nc3)cn3nccc23)C(=O)[C@]1(C#N)C1CC1 [Example 264, trifluoroacetate]	50 to 100 nM
CCn1cc(-c2cn3ncc(F)c3c(N3C[C@@H](C)[C@@](C#N)(C4CC4)C3=O)n2)cn1	20 to 50 nM
C[C@@H]1CN(c2nc(-c3cnn(C4CC5(COC5)C4)c3)cn3nccc23)C(=O)[C@]1(C#N)C1CC1	5 to 20 nM
Cc1cnn(-c2cc3c(N4C[C@@H](C)[C@@](C#N)(C5CC5)C4=O)ccnn3c2)c1	> 100 nM
C[C@@H]1CN(c2ccnn3cc(-c4cnn(C5CCN(C)C5)c4)cc23)C(=O)[C@]1(C#N)C1CC1 (some centres unmarked)	50 to 100 nM
Cc1cnc(-c2cc3c(N4C[C@@H](C)[C@@](C#N)(C5CC5)C4=O)ccnn3c2)s1 [Example 118, trifluoroacetate]	> 100 nM
C[C@@H]1CN(c2nc(-c3cnc4c(c3)CCC(=O)N4)cn3nccc23)C(=O)[C@]1(C#N)C1CC1	50 to 100 nM
CCn1cc(-c2cn3nccc3c(N3C[C@@H](C)[C@@](C#N)(C4CC4)C3=O)n2)cn1	50 to 100 nM
C[C@@H]1CN(c2nc(-c3cnn(C4CC5(COC5)C4)c3)cn3ncc(F)c23)C(=O)[C@]1(C#N)C1CC1	50 to 100 nM

Task: # IC50 lookup, item CCOCCn1cc(-c2cc3c(N4C[C@@H](C)[C@@](C#N)(C5CC5)C4=O)ccnn3c2)cn1
Result: > 100 nM

Task: And what about the compound C[C@@H]1CN(c2nc(-c3cnn([C@H]4C[C@@H](C#N)C4)c3)cn3ncc(F)c23)C(=O)[C@]1(C#N)C1CC1 ?
Result: 20 to 50 nM

Task: And what about the compound C[C@@H]1CN(c2nc(-c3cnc4c(c3)CC(=O)N4)cn3nccc23)C(=O)[C@]1(C#N)C1CC1 ?
Result: > 100 nM

Task: And what about the compound CO[C@H]1C[C@H](n2cc(-c3cn4ncc(F)c4c(N4C[C@@H](C)[C@@](C#N)(C5CC5)C4=O)n3)cn2)C1 ?
Result: 50 to 100 nM

====

molecular target: human JAK2 kinase domain (JH1) (Homo sapiens); construct: recombinantly generated catalytic kinase (also known as JH1) domain of human JAK1, JAK2, JAK3 and TYK2; assay: JH1 biochemical assay for JAK2 (ADP-Glo kinase assay, recombinant JH1 catalytic domain, JAK3-974 peptide, 15 μM ATP); details: JH1 kinase domain, ADP-Glo
Counter-ions that a name gives are not always drawn.
# IC50 listing for each entry below

# annotated cases, reported IC50 shown
C[C@@H]1CN(c2ccnn3cc(-c4ncccn4)cc23)C(=O)[C@]1(C#N)C1CC1 [Example 139]	> 10000 nM
C[C@@H]1CN(c2ccnn3cc(-c4cccnc4OC(F)F)cc23)C(=O)[C@]1(C#N)C1CC1 [Example 50]	1000 to 5000 nM

Task: # IC50 lookup, item Cn1cc(-c2cc3c(N4CC[C@](C#N)(C5CC5)C4=O)ccnc3[nH]2)cn1 [Example 2]
Result: 100 to 1000 nM

Task: And what about the molecule C[C@@H]1CN(c2ccnn3cc(-c4cnn(C5CCCC5)c4)cc23)C(=O)[C@]1(C#N)C1CC1 [Example 170] ?
Result: < 100 nM

Task: And what about the molecule Cc1cncc(-c2cc3c(N4C[C@@H](C)[C@@](C#N)(C5CC5)C4=O)ccnn3c2)c1 [Example 71] ?
Result: 100 to 1000 nM

Task: And what about the molecule C[C@@H]1CN(c2ccnn3cc(-c4cc[nH]n4)cc23)C(=O)[C@]1(C#N)C1CC1 [Example 66, trifluoroacetate] ?
Result: 100 to 1000 nM

Task: And what about the molecule C[C@@H]1CN(c2nc(-c3cnc4c(c3)CCC(=O)N4)cn3nccc23)C(=O)[C@]1(C#N)C1CC1 [Example 204] ?
Result: < 100 nM

Task: And what about the molecule C[C@@H]1CN(c2nc(-c3cnn(C(F)F)c3)cn3nccc23)C(=O)[C@]1(C#N)C1CC1 [Example 185] ?
Result: < 100 nM
